# System: HepG2
# assay-name: GSK_TCMDC: Percent inhibition of human HepG2 cell line. Test compounds present at 10uM.
# Assay type: functional
Quick reference: Inhibition of the listed items.
Output should be the measured figure followed by the unit it is expressed in.

Worked set:
# line-notation, Inhibition
records = [
    ("CCCCCN1CCN(Cc2cccc(NC(=O)c3ccc(Cl)c(Cl)c3)c2)CC1.O=C(O)C(F)(F)F", "24%"),
    ("COc1ccc(CN(C)CCCc2ccc(NC(=O)c3cccc4c(=O)c5cccc(F)c5[nH]c34)cc2)cc1OC", "100%"),
]

# input for lookup
Req: Query: Inhibition; subject: O=C(Nc1ccc(F)c(Cl)c1)c1cc([N+](=O)[O-])cc2cn[nH]c12
Resp: 32%
